- measured_on: UniProt Q02790
- method_summary: Binding affinity to FKBP52 FK1 domain by competitive fluorescence polarization assay
- assay_context: read-out: IC50
Assignment: determine reported IC50 for the given compounds.

// sample COc1ccc(CC[C@@H](OC(=O)[C@@H]2CCCCN2S(=O)(=O)c2cc(N)c3c(c2)CCO3)c2cccc(OCC(=O)O)c2)cc1OC , its IC50 was > 100 µM

// sample COC(=O)c1cc(C(=O)OC)cc(S(=O)(=O)N2CCCC[C@H]2C(=O)O[C@H](CCc2ccc(OC)c(OC)c2)c2cccc(OCC(=O)O)c2)c1 , its IC50 was > 100 µM

// sample COc1ccc(CC[C@@H](OC(=O)[C@@H]2CCCCN2S(=O)(=O)c2cc(Cl)c(NC(C)=O)c(Cl)c2)c2cccc(OCC(=O)O)c2)cc1OC , its IC50 was 20.5 µM

// sample COc1ccc(CC[C@@H](OC(=O)[C@@H]2CCCCN2S(=O)(=O)c2ccc(OC)c(OC)c2)c2cccc(OCC(=O)O)c2)cc1OC , its IC50 was > 100 µM

###

- measured_on: Peptidyl-prolyl cis-trans isomerase FKBP4 (Homo sapiens)
- Sequence (Q02790 whole entry, the tested form may be a part): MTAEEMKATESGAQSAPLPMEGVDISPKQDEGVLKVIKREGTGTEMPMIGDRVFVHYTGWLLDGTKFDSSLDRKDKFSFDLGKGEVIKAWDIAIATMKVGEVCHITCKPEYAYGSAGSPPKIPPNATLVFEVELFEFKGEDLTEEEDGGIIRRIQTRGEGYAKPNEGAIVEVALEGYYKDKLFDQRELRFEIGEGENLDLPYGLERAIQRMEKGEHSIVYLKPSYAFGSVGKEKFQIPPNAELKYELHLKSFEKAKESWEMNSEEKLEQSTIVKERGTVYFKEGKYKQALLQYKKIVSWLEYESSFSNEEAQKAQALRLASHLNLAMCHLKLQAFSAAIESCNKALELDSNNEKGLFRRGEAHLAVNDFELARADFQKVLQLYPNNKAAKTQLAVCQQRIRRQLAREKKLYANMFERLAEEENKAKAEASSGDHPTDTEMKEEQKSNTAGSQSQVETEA
- method_summary: Binding affinity to FKBP52 FK1 domain by competitive fluorescence polarization assay
- assay_context: read-out: IC50
measured_parameter: pIC50
# log scale: pIC50 equals minus log10 of the concentration in mol/L

// sample O=C(OC(CCCc1cccnc1)CCCc1cccnc1)[C@@H]1CCCCN1S(=O)(=O)c1cc(Cl)c(O)c(Cl)c1 , its pIC50 was 4.82

// sample COc1ccc(CC[C@@H](OC(=O)[C@@H]2CCCCN2S(=O)(=O)c2cccc(C#N)c2)c2cccc(OCC(=O)O)c2)cc1OC , its pIC50 was 4.16

// sample COc1ccc(CC[C@@H](OC(=O)[C@@H]2CCCCN2S(=O)(=O)c2cccc(Br)c2)c2cccc(OCC(=O)O)c2)cc1OC , its pIC50 was 4.80

// sample COc1ccc(CC[C@@H](OC(=O)[C@@H]2CCCCN2S(=O)(=O)c2ccc3ncsc3c2)c2cccc(OCC(=O)O)c2)cc1OC , its pIC50 was 4.49

// sample COc1ccc(CC[C@@H](OC(=O)[C@@H]2CCCCN2S(=O)(=O)c2cccc(F)c2)c2cccc(OCC(=O)O)c2)cc1OC , its pIC50 was 4.07

// sample CCC(C)(C)C(=O)C(=O)N1CCCC[C@H]1C(=O)O[C@H](CCc1ccc(OC)c(OC)c1)c1cccc(OCC(=O)O)c1 , its pIC50 was 5.03

###

- measured_on: UniProt:P62942
- Sequence (P62942 whole entry): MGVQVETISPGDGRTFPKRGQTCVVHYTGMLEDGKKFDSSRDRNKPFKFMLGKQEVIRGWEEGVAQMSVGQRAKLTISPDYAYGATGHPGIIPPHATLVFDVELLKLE
- method_summary: Binding affinity to FKBP12 by competitive fluorescence polarization assay
- assay_context: read-out: IC50
Assignment: determine reported pIC50 for the given molecules.
# log scale: pIC50 equals minus log10 of the concentration in mol/L

// sample COc1ccc(CC[C@@H](OC(=O)[C@@H]2CCCCN2S(=O)(=O)c2ccc(OC)c(OC)c2)c2cccc(OCC(=O)O)c2)cc1OC , its pIC50 was 5.12

// sample COc1ccc(CC[C@@H](OC(=O)[C@@H]2CCCCN2S(=O)(=O)c2cccc([N+](=O)[O-])c2)c2cccc(OCC(=O)O)c2)cc1OC , its pIC50 was 5.72

// sample COc1ccc(CC[C@@H](OC(=O)[C@@H]2CCCCN2S(=O)(=O)c2cc3c(c([N+](=O)[O-])c2)OCC3)c2cccc(OCC(=O)O)c2)cc1OC , its pIC50 was 5.82
